B1: CPEB3 Ribozyme (parent)
chain: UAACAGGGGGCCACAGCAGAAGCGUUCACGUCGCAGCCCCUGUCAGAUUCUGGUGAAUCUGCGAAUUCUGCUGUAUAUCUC

- Variants of: B1
- run description: self-cleavage, relative activity (ratio to wild type); higher = more cleavage; in vitro, sequencing
# self-cleavage >= 0.3 gives label 1, anything below gives label 0

- variant name: "G7U A15G"
  assigned category: "label 0"
- variant name: "G73A U74A"
  assigned category: "label 1"
- variant name: "G9C A57U"
  assigned category: "label 0"

Can A18G G52U be said to have self-cleavage at or above 0.3? label 1

Exam item: decide whether the reported self-cleavage for C37A U69A is at least 0.3. label 0

Decide: self-cleavage of C40U U54C >= 0.3? label 1

Assess whether reported self-cleavage for G42A U76C sits at 0.3 or higher. label 1

Is the recorded value of self-cleavage equal to or greater than 0.3 for this variant? G6U U60A label 1

// inclusive: self-cleavage at least 0.3? input: U48G A65G label 0

Say whether G7C U72C shows self-cleavage of 0.3 or more. label 1

Assess whether reported self-cleavage for G52A U72A sits at 0.3 or higher. label 1
